system: A549/ATCC NSCLC; assay: NCI-60 one-dose screen, 48 h (100 = growth as untreated, 0 = no growth, -100 = all killed); conditions: 10 µM unless noted
The panel holds about 83,000 compounds, 20% with a hit somewhere; the sample as a whole holds those more often.
Lab note: compare growth with 50%, writing fulfilled if less and not fulfilled if equal or more.

compound: CCOC(=O)CCC(=O)P(=O)(O)O
assignedClass: not fulfilled

compound: CS(=O)(=O)c1ccc(/C(=N/NC(N)=S)c2ccc(F)cc2)cc1
assignedClass: not fulfilled

compound: CCCCCCCCCCCCCC[n+]1ccc2c(C)c3c(c(C)c2c1)c1cc(O)ccc1n3CC
assignedClass: fulfilled

compound: COc1cc(C2=Nc3c(N)nc(N)nc3NC(c3cccc(Nc4ccnc5cc(C(F)(F)F)ccc45)c3)C2)cc(OC)c1OC (configuration not stated)
assignedClass: not fulfilled

compound: CCN1C(=O)N(CC)C2C1NN=c1s/c(=C\c3ccc([N+](=O)[O-])cc3)c(=O)n12 (configuration not stated)
assignedClass: fulfilled

compound: COc1ccc(-c2cc(-c3ccc(Nc4nc(Nc5ccc(Cl)cc5)nc(Nc5ccc(Cl)cc5)n4)cc3)no2)cc1
assignedClass: not fulfilled

----------
system: SW-620 colon; assay: NCI-60 one-dose screen, 48 h; conditions: 10 µM unless noted
The panel holds about 83,000 compounds, 20% with a hit somewhere; the sample as a whole holds those more often. Calls of active or inactive are those of the source. Rule for the calls: active = growth percent below 10; inactive = the rest.
Labels: 1 for active, 0 for inactive

molecule: CCN=c1sc2c(n1NC(=O)c1cc3ccc1CCc1ccc(cc1)CC3)C(=O)c1ccccc1C2=O
assignedClass: 1
--
molecule: COc1ccccc1NC(=O)n1c(=O)cc(C)c2ccc(O)cc21
assignedClass: 0
--
molecule: CS(=O)(=O)c1ccc(/C(=N/NC(N)=S)c2ccc(F)cc2)cc1
assignedClass: 0
--
molecule: O=C1Nc2ccccc2/C1=C/c1cccn1CCCCCCn1c2ccccc2c(=O)c2ccccc21
assignedClass: 0
--
molecule: CCOC(=O)c1c(C)c2c(n1Cc1ccccc1)CSc1cc(C#N)c(=O)[nH]c1-2
assignedClass: 0
--
molecule: Cc1nc2ccccc2c(/C=C/c2ccc(Cl)cc2)c1C(=O)/C=C/c1ccccc1
assignedClass: 1
--
molecule: COC1CC(O)C2=C(CC3C(/C(C)=C\CC=C(C)C)CCC3(C)O2)C1=O (configuration not stated)
assignedClass: 0
--
molecule: CCN(CC)CCCC(Nc1c2ccc(Cl)cc2nc2ccc(OC)cc12)c1ccncc1 (configuration not stated)
assignedClass: 0
--
molecule: O=C(Nc1ncc(Cc2ccc(Cl)cc2)s1)C1=NCCCCN1
assignedClass: 0
--
molecule: CCC(=C(c1ccc(OCCN(CC)CC)cc1)c1ccc(OCCN(CC)CC)cc1)c1ccc(Cl)cc1
assignedClass: 1
--
molecule: Cc1c(CC(=O)Nc2ccccc2)nnn1-c1ccccc1
assignedClass: 0
--
molecule: COc1cc(NC(=O)c2cncnc2Nc2ccc3c(ccn3Cc3cccc(F)c3)c2)cc(OC)c1
assignedClass: 0

----------
test system: UACC-257 melanoma; test: NCI-60 one-dose screen, 48 h (100 = growth as untreated, 0 = no growth, -100 = all killed); conditions: 10 µM unless noted
This is part of a sample that, as a whole, favours compounds with a hit. Of some 83,000 tested, about 20% had one in any assay.

compound: C=C(C)[C@@H]1CC[C@]2(C#N)CC[C@]3(C)[C@H](CC[C@@H]4[C@@]5(C)CCCNC(C)(C)[C@@H]5CC[C@]43C)[C@@H]12
growth [%]: 70.8

compound: COc1ccc(-c2cc(-c3ccc(N(C)C)cc3)nc(NC(=O)c3cccnc3)n2)cc1
growth [%]: 120

compound: CCOC(=O)CC1C(CNC(=O)NC)OC(n2cnc3c(NC(=O)Nc4ccccc4)ncnc32)C1O[Si](C)(C)C(C)(C)C (centres undefined)
growth [%]: 87.5

compound: Nc1ncc(-c2ccc3ncnc(N4CCc5ccc(Cl)cc54)c3c2)cn1
growth [%]: 8.1

compound: CCCCCCCCOC(=O)c1c(C)[nH]c(/C=C2\N=C(c3ccc[nH]3)C=C2OC)c1C
growth [%]: -15.2

compound: O=C(/C=C/c1cccc([N+](=O)[O-])c1)c1ccc(Nc2nc(Nc3ccc(F)cc3)nc(Nc3ccc(Cl)cc3)n2)cc1
growth [%]: 100

compound: CCCCCCCC/C=C\CCCCCCCCOc1ccc(CC(=O)NCC[N+]2(C)CCCC2)cc1
growth [%]: 77.3

compound: COc1cccc(/C=C2\CCc3ccccc3C2=O)c1
growth [%]: 80.8

compound: N#CC1=C(N)Oc2c(ccc3ccccc23)C1c1cc2ccccc2n2nnnc12 (centres undefined)
growth [%]: 47.4
